Assign log10 of minimal effective concentration to each entry below.
Test system: Human peripheral blood mononuclear cells (PBMC)
Test: Cytokine induction in human cells (PBMC)
Format: cell-based
Details: human PBMC, 21-24 hours culture, ELISA; lowest concentration giving cytokine level at least 2× negative control; read-out: MEC to Induce Cytokine IFN-alpha
Experimental: Whole blood was obtained from healthy human donors and collected by venipuncture into vacutainer tubes or syringes containing EDTA. Human peripheral blood mononuclear cells (PBMC) were purified from the whole blood by density gradient centrifugation. […] The number of viable cells was determined by counting with a Miltenyi FACS instrument (Miltenyi Biotec Inc., San Diego, CA) or by using a hemocytometer. […]
Values reflect log10 of reported minimal effective concentration (µM).

Q. Consider the compound CCO[C@@H](C)[C@@H](n1cnc2c(N)nc3ccccc3c21)C(C)(C)O [Example 13] and give its measured log10 of minimal effective concentration.
A. 0.52

Q. Consider the compound CCOC[C@H](n1cnc2c(N)nc3ccccc3c21)C(C)(C)C [Example 10] and give its measured log10 of minimal effective concentration.
A. 0.48

Q. Consider the compound CCOC[C@@H](C(C)C)n1c(C)nc2c(N)nc3ccccc3c21 [Example 4] and give its measured log10 of minimal effective concentration.
A. 1.00

Q. Consider the compound CCOC[C@@H](n1c(C)nc2c(N)nc3ccccc3c21)C(C)(C)O [Example 7] and give its measured log10 of minimal effective concentration.
A. -0.92

Q. Consider the compound CCOC[C@@H](n1c(CC)nc2c(N)nc3ccccc3c21)C(C)(C)O [Example 8] and give its measured log10 of minimal effective concentration.
A. 1.00

Q. Consider the compound CCOC[C@@H](n1cnc2c(N)nc3ccccc3c21)C(C)(C)C [Example 9] and give its measured log10 of minimal effective concentration.
A. -2.40

Q. Consider the compound CCOC[C@@H](C(C)C)n1cnc2c(N)nc3ccccc3c21 [Example 2] and give its measured log10 of minimal effective concentration.
A. 0.52
